- tested_on: Glutamate receptor 3 (Rattus norvegicus, UniProt P19492)
- Sequence (P19492 whole entry): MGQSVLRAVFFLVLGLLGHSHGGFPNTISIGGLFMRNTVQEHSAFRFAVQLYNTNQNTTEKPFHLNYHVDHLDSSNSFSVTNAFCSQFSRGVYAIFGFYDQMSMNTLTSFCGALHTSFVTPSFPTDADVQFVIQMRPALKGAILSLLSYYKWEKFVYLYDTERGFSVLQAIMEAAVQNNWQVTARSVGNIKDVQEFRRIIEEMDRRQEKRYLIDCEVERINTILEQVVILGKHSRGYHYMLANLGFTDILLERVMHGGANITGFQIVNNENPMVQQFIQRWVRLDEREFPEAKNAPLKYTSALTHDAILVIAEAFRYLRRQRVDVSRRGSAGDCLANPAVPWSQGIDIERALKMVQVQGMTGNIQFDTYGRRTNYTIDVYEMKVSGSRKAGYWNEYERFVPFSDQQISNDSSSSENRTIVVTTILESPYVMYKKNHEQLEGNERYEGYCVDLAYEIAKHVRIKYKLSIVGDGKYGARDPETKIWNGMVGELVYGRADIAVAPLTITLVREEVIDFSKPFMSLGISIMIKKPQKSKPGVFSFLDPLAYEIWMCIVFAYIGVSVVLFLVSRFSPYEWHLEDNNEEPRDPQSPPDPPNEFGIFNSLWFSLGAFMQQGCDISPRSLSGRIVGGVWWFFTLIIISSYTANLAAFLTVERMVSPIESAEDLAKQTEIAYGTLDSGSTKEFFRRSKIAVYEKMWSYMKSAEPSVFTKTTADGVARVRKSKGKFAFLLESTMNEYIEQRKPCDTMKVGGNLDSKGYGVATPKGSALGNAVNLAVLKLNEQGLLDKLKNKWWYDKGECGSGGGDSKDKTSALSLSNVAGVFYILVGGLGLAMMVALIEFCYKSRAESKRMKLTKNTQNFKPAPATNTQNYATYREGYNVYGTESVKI
outcome_measure: Ki

Look up Ki with Glutamate receptor 3 (Rattus norvegicus, UniProt P19492) for this molecule: O=C(O)C1NCCc2o[nH]c(=O)c21 (stereo unspecified)
> 10 µM

====

Measured Ki (Glutamate receptor ionotropic, NMDA 1 (Rattus norvegicus, UniProt P35439))

molecule	tested_on	Ki
CNC(C(=O)O)c1c(C)o[nH]c1=O (stereo not drawn)	Glutamate receptor ionotropic, NMDA 1 (Rattus norvegicus, UniProt P35439)	> 10 µM
Cc1o[nH]c(=O)c1C(C(=O)O)N(C)C (stereo not drawn) [N,N-dimethyl-AMAA]	Glutamate receptor ionotropic, NMDA 1 (Rattus norvegicus, UniProt P35439)	> 10 µM

Quick check: Ki of O=C(O)C1NCCc2o[nH]c(=O)c21 (stereo not drawn) [CAS_129091] ?
> 10 µM
